- assay.notes: Clast in CD-1 mouse at 1 mg/kg, iv measured up to 24 hrs
- Type: ADME, organism-based
- settings: in vivo, read-out: Clast
measure: concentration at 24 h

| smiles.text | test.result |
| --- | --- |
| Clc1cnc(CNc2ccc3cnsc3c2)s1 | 2.99 ng/mL |

---

- assay.notes: Drug concentration in C57BL6 mouse colon at 100 mg/kg, po administered as single dose measured after 6 hrs by LC-MS/MS analysis
- Format: ADME, organism-based
- settings: read-out: Ct

| smiles.text | concentration at 6 h (ng/g) |
| --- | --- |
| Clc1cnc(CNc2cc3sncc3cc2Cl)s1 | 2620 |
